Counter-ions that a name gives are not always drawn.

COMPOUND | melting point [°C]
O=S1(=O)c2ccccc2N(Cc2cnc[nH]2)CCN1Cc1cccc2ccccc12 (as salt: hydrochloride) [Example 1, monohydrochloride] | 128
CN1C(Cc2ccccc2)CN(Cc2cnc[nH]2)c2ccc(Br)cc2S1(=O)=O (stereo not shown) (as salt: hydrochloride) [Example 10, monohydrochloride] | 140
O=S1(=O)c2ccccc2N(Cc2cnc[nH]2)CCN1CCc1ccccc1 (as salt: hydrochloride) [Example 2, monohydrochloride] | 95
O=S1(=O)NC(Cc2ccccc2)CN(Cc2cnc[nH]2)c2ccc(Br)cc21 (stereo not shown) (as salt: hydrochloride) [Example 9, monohydrochloride] | 180
